Provide the recorded log10 Kd for the entries that follow.
# Tested On: SARS-CoV-2 spike S2 protein (SARS-CoV-2, UniProt P0DTC2 686-1213)
Each number you see is log10 of Kd, and the unit inside the log is pM.

Look up log10 Kd: AB-009123 (antibody, V domains shown) VH: QVQLLQSGAEVRKPGASVKVSCKASGYTFSSYVMHWVRQAPGQGLEWMGWINTGNGNTRYSQKIQGRVTFTIDTAANTVNMEVSSLRSEDTAVYYCAREGLRATHYFDYWGRGTLVTVSS VL: SYELTQPPSVSVSSGQTASIPCSGDRVGDRYVCWYQQKPGQSPVLVIYQDSKRPSGIPERFSGSNSGSTATLTISGTQAIDEADYYCQAWDSSTGGVFGGGTKLTVL
4.28

Look up log10 Kd: AB-009074 (antibody, V domains shown) VH: QVQLVESGGGVVQPGRSLRLSCAASGFTFSSYGMHWVRQAPGKGLEWVAVIWYDGSNKYYADSVKGRFTISRDNSKNTLYLQMNSLRAEDTAVYYCAREGLVGATTGFDYWGQGTLVTVSS VL: SYELTQPPSVSVSPGQTARITCSGDALPKKYAYWYQQKSGQAPVLVIYEDSKRPSGIPERFSGSSSGTMATLTISGAQVEDEADYYCYSTDSSGNHGVFGTGTKVTVL
4.96

Look up log10 Kd: AB-009095 (antibody, V domains shown) VH: EVQLVQSGAEVKKPGESLIISCTGSGYTFATFWITWVRQMPGKGLEWLGRIDPSDSYTNYNPSFQGHVTVSVDRSINTAYLELTSLKASDTAIYYCARQMYNTGWPIPNYSDYWGQGTLVTVSS VL: QSALTQPPSASGSPGQSVTISCAGASTDVGVYNFVSWYQQHPGKAPKLIIFDVNKRPSGVPDRFSGSKSGNTASLTVSGLQAEDEADYYCSSYEVGNNFVFGTGTKVTVL
2.25

Look up log10 Kd: AB-009291 (antibody, V domains shown) VH: EVHLLESGGGLVQPGGSLRLSCAASGFTFTTYAMFWVRQAPGKGLEWVSAINAGGAKTHYADSVRGRFTISRDNSKSTLYLHMDRLRVGDTAIYYCAKVPSYIYDSRDDYLDFWGQGTLVTVSS VL: EIVLTQSPATLSLSPGERATLSCRASQSVSSYLAWYQQRPGQAPRLLIYDASSRATGIPVRFSGSGSGTDFTLTISSLEPEDFAVYYCQQRSDWPLLTFGGGTKVEIK
1.24

Look up log10 Kd: AB-009083 (antibody, V domains shown) VH: EVHLLESGGGLVQPGGSLTLTCAASGFSFGNYVMGWVRQAPGKGLEWVSSIFGSGANPHYGGSVKGRFTISRDNSQNTLFLQMDSLTAEDTAVYYCARDGGTMVGGIITGGFNYFDSWGQGTLVTVSS VL: EIVLTQSPASLSLSPGGWATLSCRASRSIGNSLAWYQQRPGQAPRLLIYDASNRATGIPARFSGSGSGTDFTLTISSLEPEDFAIYYCQQRNSWPPLYTFGQGTKLEIK
2.21

Look up log10 Kd: AB-009363 (antibody, V domains shown) VH: EVQLLESGGGLVQPGGSLRLSCAASGFTFSSFAMTWIRQAPGKGLEWISAIGGDGGATYYVDSIKGRFTISRDNSKNTVYLHMNGLRVEDTAVYYCATPSPTRYSWGQGTLVTVSS VL: DIVMTQSPDSLAVSLGERATLNCKSSQSVLYSSNNKNYLAWYQQKPGQPPKLLFYWASTRQSGVPDRFSGSGSGTDFTLTISSLQAEDGAVYYCQQYHKTPHTFGQGTKLEIK
5.28

Look up log10 Kd: AB-009306 (antibody, V domains shown) VH: QVQLVQSGAEVKKPGASVKVPCKASGYTFTSYQMHWVRRAPGQGLEWMGLIDPDTGGTRYTQNFQGRVTMTRDTSTTTVYMELNSLTSGDTAVYYCARGGRVGATYPYNMDVWGKGTTVTVSS VL: SYELTQPPSVSVSPGQTARITCSGDALPKKYAYWYQQKSGQAPVLVIYEDSKRPSGIPERFSGSSSGTMATLTISGAQVEDDSDYYCFSTDSSGNHGVFGGGTRLTVL
2.34

Look up log10 Kd: AB-009325 (antibody, V domains shown) VH: QVQLVESGGGVVQPGRSLRLSCAASGFTFNNYGMHWVRQAPGKGLEWVALISYEGSLKYYGDSVRGRFTVSRDNSRNTLYLQMNSLRVDDTAVYYCAKAGGIFAIHYYGMNVWGQGTTVTVSS VL: QSVLTQPPSVSAAPGQKVTISCSGSSSNIGKNYVSWYRQFPGTAPKLLIYDNNKRPSGIPDRFSGSKSDTSATLGITGLQTGDEADYYCVTWDSSLSAGVFGGGTKLTVL
1.67

Look up log10 Kd: AB-009263 (antibody, V domains shown) VH: EVQLVQSGAEVKKPGESLRISCQSSGYSFSTYWIAWVRQTPEKGLEWMGIIYPGDSDTRYSPTFQGQVTISADTSISTAYLQWSSLKASDTAVYYCARFRFNWLLSYYYYYMDVWGKGTTVSVSS VL: QSALTQPDSVSGSPGQSIAISCTGTSRDVGGYNYVSWYQQHPGKAPKLMIYEVSNRPSGVSDRFSGSKSDNTASLTISGLQGDDEANYYCSSYTDSGTLVFGGGTKVTVL
1.58

Look up log10 Kd: AB-009106 (antibody, V domains shown) VH: QVQLAQSGAEVKRPGASVKVSCKASGFDLTTYGVGWVRQAPGQGLEWMGWISGSSGDTHYAQQFQDRVTMTTDTPTSTAYMELRSLRSDDTAVYYCVRENIAHYGSRTFLVRYYRGMDVWGQGTTVTVAS VL: QSALTQPASVSGSPGQSITITCTGSSSDIGGFDFVSWYQQYPGKAPKLVISEVTNRPSGVSIRFSGSKSGNTASLTISGLQAEDEADYYCSSYASSYPTTNTRVFGTGTKVTVL
1.62
